system: adriamycinresistente S 180 Maus Sarcomazellen; experiment: MTT proliferation/cytotoxicity assay on adriamycin-resistant S 180 sarcoma cells, with or without adriamycin (sensitisation); assay type: cell-based; conditions: S-180, 144 h, Tabelle 1; Adriamycin 0 ng/ml; six days culture, MTT readout
readout-label: IC50 (µg/mL)
Answer with a number only, understood to be in µg/mL.

Req: Value lookup for IC50; key = CC(O)CN(CCO)c1nc(N2CC(C)OC(C)C2)nc2nc(N3CC(C)OC(C)C3)c(-c3ccccc3)nc12 (centres unmarked) [C]
Resp: 12.8

Req: Value lookup for IC50; key = CC1CN(c2nc(N(CCO)CCO)c3nc(-c4ccccc4)c(N4CC(C)OC(C)C4)nc3n2)CC(C)O1 (centres unmarked) [D]
Resp: 14.4

Req: Value lookup for IC50; key = CC1CN(c2nc(N(CCO)CC(C)(C)O)c3nc(-c4ccccc4)c(N4CC(C)OC(C)C4)nc3n2)CC(C)O1 (centres unmarked) [A]
Resp: 20.7

Req: Value lookup for IC50; key = C[C@@H]1CN(c2nc(N(CCO)CC(C)(C)O)c3nc(-c4ccccc4)c(N4C[C@@H](C)O[C@@H](C)C4)nc3n2)C[C@H](C)O1 [E]
Resp: 7.5

Numbers sourced from patent EP0362645B1.
